System: IGROV-1
Assay: NCI tumour cell line growth inhibition, 48 h
Calls of active or inactive are those of the source. No stated cut-off is given here; in the data, active = GI50 up to about 1.1 µM and inactive = higher.
Possible outcomes: 1 = active, 0 = inactive

# molecule, group
rows = [
    ("Cc1cccc(-c2nc3c(C(=O)NCCN(C)C)cccc3[nH]2)c1", 1),
    ("CCOc1ncn(-c2ccc(NC(=S)Nc3cccc(O)c3)cc2)n1", 0),
    ("CCOC(=O)Cn1c(=O)[nH]c(=O)c2[nH]cnc21", 0),
    ("CCCCC(CC)C(=O)Oc1ccc(C(=O)c2ccccc2)c(O)c1 (stereo not drawn)", 0),
    ("COC(=O)CCC(NC(=O)OC(C)(C)C)C(=O)NC(Cc1ccc(NC(=O)CCCC(C)=O)cc1)C(=O)NC(CCC(=O)OC)C(=O)OC (stereo not drawn)", 0),
    ("C=CSCCC(N)C(=O)O (stereo not drawn)", 0),
    ("O=CN/C=C/c1ccc(O)c(O)c1", 0),
    ("NC1CC2NC3CCCCC3NC2CC1N (stereo not drawn)", 0),
    ("CCN1/C(=C/C(C)=C/c2sc3ccccc3[n+]2CC)Sc2ccccc21", 1),
    ("Cc1ccccc1/N=N/c1c(O)ccc2ccccc12", 0),
    ("O=c1[nH]c(=O)n(COC(CO)CO)cc1-c1ccccc1", 0),
    ("COC(=O)C1C(C(=O)OC)C2(OC(c3ccc(Cl)cc3)=CC2=O)C12OC(c1ccc(Cl)cc1)=CC2=O (stereo not drawn)", 0),
    ("COc1cc2c(c(OC)c1OC)CCNC2C1=C(O)COC1=O (stereo not drawn)", 0),
]

----------
Below is a list of entries, each paired with its recorded GI50 value.
Test system: HCC 2998
Assay: NCI tumour cell line growth inhibition, 48 h
Active and inactive are the calls of the source. Rule as the data show it: active = GI50 up to about 1.1 µM and inactive = higher.
measurement kind: GI50

# compound, endpoint result
measured = [
    ("CCOC(=O)CCCNC(=O)CCCCC(=O)N(C)C", "> 100 µM (inactive)"),
    ("COc1cc2c(c(OC)c1OC)CCNC2C1=C(O)COC1=O (configuration not stated)", "> 100 µM (inactive)"),
    ("CCOC(=O)/C=C1/C(CCCOCc2ccccc2)C2CCCC23CC2(CCN13)OCCO2 (configuration not stated)", "25.8 µM (inactive)"),
    ("Cc1cc(NS(=O)(=O)c2ccc(NC(=O)c3cccc4c(=O)c5ccccc5[nH]c34)cc2)no1", "36.5 µM (inactive)"),
    ("O=[N+]([O-])C1Cc2ccccc2OC1c1ccccc1 (configuration not stated)", "> 100 µM (inactive)"),
    ("O=Cc1ccc2c(c1I)OCO2", "> 100 µM (inactive)"),
    ("COC(=O)CCC(NC(=O)OC(C)(C)C)C(=O)NC(Cc1ccc(NC(=O)CCCC(C)=O)cc1)C(=O)NC(CCC(=O)OC)C(=O)OC (configuration not stated)", "> 100 µM (inactive)"),
    ("O=C1CSC(c2ccccc2O)N1c1ccc(-n2c(-c3ccccc3)nc3ccccc3c2=O)cc1 (configuration not stated)", "28.5 µM (inactive)"),
    ("CC(NC(=O)OC(C)(C)C)C(=O)NC(Cc1ccccc1)C(=O)NCC(=O)Oc1c(Cl)c(Cl)c(Cl)c(Cl)c1Cl (configuration not stated)", "15.3 µM (inactive)"),
    ("COC(=O)C1=C(c2ccc3c(c2)OCO3)OC(c2cc(OC)c(OC)c(OC)c2)C1 (configuration not stated)", "5.77 µM (inactive)"),
    ("NC(=O)c1cc2ccccc2o/c1=N/c1ccccc1", "> 100 µM (inactive)"),
    ("CN(CCO)CC(=O)CC(O)(C(F)(F)F)C(F)(F)F", "56.2 µM (inactive)"),
]

----------
Below is a list of entries, each paired with its recorded GI50 value.
System: SR
Assay: NCI tumour cell line growth inhibition, 48 h
Calls of active or inactive are those of the source. Rule as the data show it: active = GI50 up to about 1.1 µM and inactive = higher.

# compound, target system, GI50
records = [
    ("CC#Cc1c(O)c2c(c(O)c1C#CC)C(=O)c1ccccc1C2=O", "SR", "> 100 µM (inactive)"),
    ("CC(=O)OC1CC2C(=O)C(=O)C1(C)C2(C)C (stereo unspecified)", "SR", "> 100 µM (inactive)"),
    ("COC(=O)[C@@]12OC[C@]34C([C@@H](O)C1O)[C@@]1(C)CC(=O)C(O)=C(C)C1C[C@H]3OC(=O)[C@H](OC(=O)CC(C)C(F)(F)F)[C@H]42 (stereo partly specified)", "SR", "0.00429 µM (active)"),
    ("C(/COc1cccnc1)=N\\NC1=NCCN1", "SR", "> 100 µM (inactive)"),
    ("Cc1c(C)c(C)c(-n2[nH]c(=O)n(C)c2=O)c(C)c1C", "SR", "> 100 µM (inactive)"),
    ("O=c1cc(/C=C/c2ccc(O)c(O)c2)oc(/C=C/c2ccc(O)c(O)c2)c1", "SR", "1.07 µM (active)"),
    ("[O-][n+]1onc2c1-c1nonc1CC2", "SR", "1.46 µM (inactive)"),
    ("O=[N+]([O-])C1Cc2ccccc2OC1c1ccccc1 (stereo unspecified)", "SR", "15.3 µM (inactive)"),
    ("CC12CC(=O)OC(Cc3ccccc31)O2 (stereo unspecified)", "SR", "> 100 µM (inactive)"),
    ("COc1cc(NCc2ccc3nc(-c4ccccc4)c(N)nc3c2)cc(OC)c1OC", "SR", "37.8 µM (inactive)"),
    ("CCOC(=O)C(=O)Nc1nc2c(s1)C(=O)c1ccccc1C2=O", "SR", "3.43 µM (inactive)"),
    ("CC1=NN(c2cccc(Cl)c2)C2(SCC(=O)N2c2nc3ccccc3s2)/C1=C\\c1cccs1 (stereo unspecified)", "SR", "11.7 µM (inactive)"),
    ("CC(C(=O)ON1C(=O)CCC1=O)c1ccc(C(=O)c2ccccc2)s1 (stereo unspecified)", "SR", "> 100 µM (inactive)"),
    ("C[N+](C)(C)CC1CCCc2ccccc2C1=O (stereo unspecified)", "SR", "1.64 µM (inactive)"),
    ("CCN(CC)CCC1CCCCN1CC(=O)N1c2ccccc2NC(=O)c2ccccc21 (stereo unspecified)", "SR", "> 100 µM (inactive)"),
    ("Nc1nc(S)nc(C(=O)Nc2ccc(Cl)c(Cl)c2)c1-c1ccc(Cl)cc1", "SR", "76.6 µM (inactive)"),
]

----------
System: NCI/ADR-RES
Test: NCI tumour cell line growth inhibition, 48 h
Calls of active or inactive are those of the source. Cut-off read from the data, not from the text of the source: active = GI50 up to about 1.1 µM and inactive = higher.
measurement kind: GI50

# molecule, target system, endpoint result
data = [
    ("O=c1c2cc([N+](=O)[O-])ccc2oc2nc3n(c(=O)c12)CCCS3", "NCI/ADR-RES", "> 100 µM (inactive)"),
    ("Brc1ccc2c(-c3nc(-c4c[nH]c5ccc(Br)cc45)cs3)c[nH]c2c1", "NCI/ADR-RES", "4.56 µM (inactive)"),
    ("C/C=C/[C@@H]1O[C@H](CC#C[Si](C)(C)C)[C@@]2(C=O)C(C)=CC[C@H](C(C)C)[C@@H]12", "NCI/ADR-RES", "23.3 µM (inactive)"),
    ("O=C1CCCCCC1CC(Sc1ccccc1)Sc1ccccc1 (stereo not given)", "NCI/ADR-RES", "> 100 µM (inactive)"),
    ("Cc1nn(-c2ccccc2)c2nc3c(c(C)nn3-c3ccccc3)c(-c3ccc(C(F)(F)F)cc3)c12", "NCI/ADR-RES", "> 100 µM (inactive)"),
    ("O=C(O)c1ccc(/C=N/N=C2c3ccccc3-c3ccccc32)cc1", "NCI/ADR-RES", "> 100 µM (inactive)"),
    ("COc1ccc(-c2cc(=O)c3c(O)c(OC)c(OC)c(OC)c3o2)cc1", "NCI/ADR-RES", "> 100 µM (inactive)"),
    ("C=CCn1c2ccccc2[n+]2cc([N+](=O)[O-])ccc12", "NCI/ADR-RES", "57 µM (inactive)"),
    ("CC1(C)OCC2OC(n3cnc4c(N)nc(Cl)nc43)C(OS(C)(=O)=O)C2O1 (stereo not given)", "NCI/ADR-RES", "> 100 µM (inactive)"),
    ("COc1ccc2nc3c(C)cc4ccccc4n3c2c1", "NCI/ADR-RES", "> 100 µM (inactive)"),
    ("Cn1c(=O)c2c(ncn2CCCCOc2ccc3c(c2)[n+]([O-])nc(N)[n+]3[O-])n(C)c1=O", "NCI/ADR-RES", "> 100 µM (inactive)"),
    ("N=C(N)N/N=C/c1c(-c2ccc(N)cc2)nc2sccn12", "NCI/ADR-RES", "> 100 µM (inactive)"),
    ("Cc1c2cccc-2c2cc(O)c3ccccc3c2n1-c1ccc(N(C)C)cc1", "NCI/ADR-RES", "14.6 µM (inactive)"),
    ("CC(=O)OC1CC2C(=O)C(=O)C1(C)C2(C)C (stereo not given)", "NCI/ADR-RES", "> 100 µM (inactive)"),
    ("CCOC(=O)C(C)(C)/C=C\\C(Cl)=C(Cl)Cl", "NCI/ADR-RES", "> 100 µM (inactive)"),
]

Each recorded value in this set is attributed to ChEMBL document CHEMBL1201862.
